Tested on: IMC-1 (IL-2 20 ng/mL);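 note: normalised to DMSO-only wells as negative and benzethonium chloride as positive control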
protocolText: percent inhibition of viability; higher = more inhibition
conditionSummary: 72 h; 0.1 nM
Give percent inhibition of viability for every item shown.
The figure you give is taken to be in %; do not add the unit.

Param readout= percent inhibition of viability; system= IMC-1 (IL-2 20 ng/mL); entry= Cn1c(Nc2ccc(C(F)(F)F)cc2)nc2cc(Oc3ccnc(-c4ncc(C(F)(F)F)[nH]4)c3)ccc21 [RAF265] (max concentration tested 1000 nM) ; returns value. -5.99

Similarly, NC(=O)c1cccc(-c2cccc(OC(=O)NC3CCCCC3)c2)c1 [URB597] (max concentration tested 1000 nM) ? -4

Next entry: COc1cc(CCc2cc(NC(=O)c3ccc(N4CC(C)NC(C)C4)cc3)n[nH]2)cc(OC)c1 (stereo unspecified) [AZD4547] (max concentration tested 1000 nM) -10.2

Item: Cc1ccc(C(=O)Nc2ccc(CN3CCN(C)CC3)c(C(F)(F)F)c2)cc1C#Cc1cnc2cccnn12 [Ponatinib] (max concentration tested 1000 nM) -6.8

Further, for NC1(c2ccc(-c3nc4ccn5c(=O)[nH]nc5c4cc3-c3ccccc3)cc2)CCC1 [MK-2206] (max concentration tested 1000 nM) ? -4.35

Field entry: Cc1cccc(-c2nn3c(c2-c2ccnc4ccc(C(N)=O)cc24)CCC3)n1 [Galunisertib] (max concentration tested 1000 nM) -7.13
